Hello, the source for this data is PubChem BioAssay, in case you need it.

assay: growth inhibitors of H69AR lung tumor, primary screen, human, duplicate replicates (AID 580); conditions: H69AR lung tumor cells viability, ATP luminescence, 72 h; at 10 µM; hits give low values;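 also: 100% = mean luminescence of untreated wells and 0% = no signal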
Measured Metric: viability (%)
Only the number, expressed in %, is required.

Lookup: Look up and report measured viability for this entry: "COCCn1c(Sc2nc(C)cs2)nc2c1c(=O)[nH]c(=O)n2C"
Found: 101

Lookup: Look up and report measured viability for this entry: "Cc1nc2ccccc2c(=O)n1NC(=O)Nc1ccccc1"
Found: 107

Lookup: Look up and report measured viability for this entry: "Cc1cc(Cl)c(S(=O)(=O)Nc2ccc3c(c2)OCCO3)cc1OCC(N)=O"
Found: 97.2

Lookup: Look up and report measured viability for this entry: COCc1nnc(SCC(=O)NC(C)c2ccccc2)n1-c1ccccc1 (stereo unspecified)
Found: 100

Lookup: Look up and report measured viability for this entry: "COC(=O)Nc1sc2c(c1C(N)=O)CCCCCC2"
Found: 99.5

Lookup: Look up and report measured viability for this entry: "CCOc1ccc2[nH]cc(C(=O)N3CCN(CC)CC3)c(=O)c2c1"
Found: 89.6
